Measured values drawn from the supplement of paper PMC8728848 for this set.

Catalogue of binders with associated glycan array binding signal (z-score)
- System Name: Gal3S(b1-4)[Fuc(a1-3)]GlcNAc
- Test Details: glycan array binding signal (z-score within array); higher = stronger binding
- Condition Summary: glycan notation: IUPAC condensed, linker removed
About 410 targets per protein were measured; listed, in parts, are those with the strongest signals and a random draw of the rest.
Give only the figure.

**Query** For Gal 7 (Homo sapiens) (protein) MSNVPHKSSLPEGIRPGTVLRIRGLVPPNASRFHVNLLCGEEGGSDAALHFNPRLDTSEVVFNSKEGGSWGREERGPGVPFGRGQPFEVLIIASDDGFKAVVGDAQYHHFRHRLPLARVRLVEVGGDVQLDSVRIF , what is its reported glycan array binding signal (z-score)?
**Result** -0.312

**Query** For CFEM-PPl (Pichia pastoris), F2QPV1 (protein) AVATPPACLLACAAEVVKESSDCDALNNIQCICENEGSAIHACLESTCPDGLSSTALQSFEDVCESVGTEANLDE , what is its reported glycan array binding signal (z-score)?
**Result** -0.308
